Test system: MALME-3M melanoma
experiment_description: NCI tumour cell line growth inhibition, 48 h
I'd appreciate it if you could supply TGI values for the items below.

Input: Recall the recorded TGI for `COc1ccc2[nH]c3c(c2c1)[C@H](C)C[C@@H]1C(=O)N(c2ccccc2)C(=O)[C@H]31` with MALME-3M melanoma and state it.
Output: 79.8 µM

Input: Consider next the compound CC(=O)c1ccc2c(c1)CC1(C2)Cc2ccccc2C1=O (stereo unspecified) in the same way.
Output: > 100 µM

Input: Consider next the compound `CC(=O)c1ccc(O)c(CN(C2CCCCC2)C2CCCCC2)c1O` in the same way.
Output: > 100 µM

Input: Consider next the compound COc1cc2c(cc1OC)C(C(=O)c1cccc(OC)c1OC)C(=O)N(C)CC2 (stereo unspecified) in the same way.
Output: > 100 µM

Input: Consider next the compound COc1ccc(C(=O)c2ccc([As]=O)cc2)cc1 (stereo unspecified) in the same way.
Output: 0.0861 µM

Input: Consider next the compound `CCCCn1c(-c2ccc([N+](=O)[O-])cc2)cs/c1=N/N=C1\C(=O)Nc2ccc(Br)cc21` in the same way.
Output: > 100 µM

* * *

I'd appreciate it if you could supply GI50 values for the items below.
System: NCI/ADR-RES ovarian
experiment_description: NCI tumour cell line growth inhibition, 48 h

Input: What value of measured GI50 is listed for `O=S(=O)(CCCl)c1ccc(Cl)cc1` ?
Output: 3.86 µM

Input: Consider next the compound `CC(C)(C)OC(=O)NCCCCCCCn1c2c(c3ccccc3c1=O)C(=O)c1ccccc1-2` in the same way.
Output: 26.1 µM

Input: Consider next the compound `CN(C)c1ccc(-c2ccc(-c3ccc(C(=N)N)cc3)s2)cc1` in the same way.
Output: 2.35 µM

Input: Consider next the compound `COc1ccc(OC)c(Cn2cc3c(c2-c2ccccc2)CCc2cnoc2-3)c1` in the same way.
Output: 2.48 µM

Input: Consider next the compound `C=C1C(=O)O[C@H]2[C@H]1CC/C(C=Nc1c(N)cc(C(F)(F)F)cc1Br)=C\CC[C@@]1(C)O[C@@H]21` in the same way.
Output: 2.31 µM

Input: Consider next the compound COC(=O)C1(C)Cc2cc(OC(C)=O)c(OC(C)=O)cc2N1 (stereo unspecified) in the same way.
Output: 16 µM

* * *

System: HL-60(TB) leukemia
experiment_description: NCI tumour cell line growth inhibition, 48 h
I'd appreciate it if you could supply TGI values for the items below.

Input: What value of measured TGI is listed for `CN1CCN(c2cc3nsnc3c3nsnc23)CC1` ?
Output: > 10 µM

Input: Consider next the molecule CCCSc1nc(-c2ccc(OC)cc2)c(C#N)c(=O)n1C1OC(COC(C)=O)C(OC(C)=O)C(OC(C)=O)C1OC(C)=O (centres undefined) in the same way.
Output: > 100 µM

Input: Consider next the molecule `O=[N+]([O-])c1ccc(Sc2c3ccccc3nc3cc(Cl)ccc23)cc1` in the same way.
Output: > 100 µM

Input: Consider next the molecule FC(F)(F)c1cc(C2SCc3nc4ccccc4n32)cc(C(F)(F)F)c1 (centres undefined) in the same way.
Output: > 100 µM

Input: Consider next the molecule C[C@H]1SC(c2ccc(Cl)cc2Cl)N(NC(=O)c2ccncc2)C1=O (some centres undefined) in the same way.
Output: > 100 µM

Input: Consider next the molecule `CSC(=NCCc1c[nH]c2ccccc12)NC#N` in the same way.
Output: > 100 µM

Input: Consider next the molecule `CN(C)CCNC(=O)c1cccc2nc(-c3ccccc3)oc12` in the same way.
Output: 96.2 µM

Input: Consider next the molecule `C=C1C(=O)O[C@H]2[C@H]1CC/C(C=Nc1c(N)cc(C(F)(F)F)cc1Br)=C\CC[C@@]1(C)O[C@@H]21` in the same way.
Output: 2.48 µM

Input: Consider next the molecule `Cc1nc(C(N)=S)sc1C(=O)/C=C/c1c(O)ccc2ccccc12` in the same way.
Output: 65.3 µM

Input: Consider next the molecule `S=c1cc(-c2ccc3c(c2)OCO3)s[nH]1` in the same way.
Output: > 100 µM

Input: Consider next the molecule `O=S(=O)(NCCCNc1nccc(-c2c(-c3ccc(F)cc3)nc3sccn23)n1)c1ccc2ccccc2c1` in the same way.
Output: > 100 µM

Input: Consider next the molecule COC1=C(C)C(=O)c2c(c(COC(N)=O)c3n2CC(OC(C)=O)C3OC(C)=O)C1=O (centres undefined) in the same way.
Output: 0.202 µM

Input: Consider next the molecule `O=C1CCCCN1CCCCC#Cc1cccc(C#Cc2cccnc2)c1` in the same way.
Output: 70 µM

Input: Consider next the molecule Cc1cnc2c(c1)C(=O)C1=C(C2=O)C2OC(=O)CC2OC1(C)C (centres undefined) in the same way.
Output: 0.0142 µM

Input: Consider next the molecule `C[n+]1c(-c2ccc(/C=C/C=N\NC(=O)c3ccc(C(=O)N/N=C\C=C\c4ccc(-c5cn6ccccc6[n+]5C)cc4)cc3)cc2)cn2ccccc21` in the same way.
Output: > 65.7 µM

Input: Consider next the molecule `COC(=O)C1=Nc2c(C)nn(-c3ccccc3)c2N=C(c2ccccc2)C1` in the same way.
Output: > 10 µM

Input: Consider next the molecule `c1c[nH]c(CN2CCOCC2)n1` in the same way.
Output: > 100 µM

Input: Consider next the molecule COC1CC(OC2CCC3(C)C(=CCC4C3C(OC(C)=O)C(OC(=O)CC(C)C)C3(C)C(C(C)=O)CCC43O)C2)OC(C)C1OC1CC(OC)C(OC2CC(OC)C(OC3OC(C)C(OC4OC(CO)C(O)C(O)C4O)C(OC)C3O)C(C)O2)C(C)O1 (centres undefined) in the same way.
Output: > 75 µM

Input: Consider next the molecule `CC(C)OC(=O)OCSc1ccccc1N=Cc1cccc([N+](=O)[O-])c1` in the same way.
Output: > 10 µM

* * *

Tested on: OVCAR-5 ovarian
experiment_description: NCI tumour cell line growth inhibition, 48 h; in the data active = GI50 below about 0.43 µM; inactive = the rest
The reply should be one of these categories: Y = active, N = inactive

Input: // outcome(item) with item = `COc1ccc2c(c1)/C(=C/c1cc(OC)c(OC)c(OC)c1)C(=O)N2`
Output: N

Input: Consider next the molecule `COc1ccc(CN2C3CC2CN(c2ccc(-c4cc(OCC(C)(C)O)cn5ncc(C#N)c45)cn2)C3)cn1` in the same way.
Output: N

Input: Consider next the molecule `CNC(=O)c1nn(C)c2c1C(C)(C)Cc1cnc(Nc3ccc(N4CCN(C)CC4)cc3)nc1-2` in the same way.
Output: N

Input: Consider next the molecule `Oc1ccccc1-c1nn(CNc2ccccc2Cl)c(=S)o1` in the same way.
Output: N

Input: Consider next the molecule `CN(C)C(=O)O[C@H]1CN[C@H](C#Cc2cc3ncnc(Nc4ccc(OCc5cccc(F)c5)c(Cl)c4)c3s2)C1` in the same way.
Output: N

Input: Consider next the molecule `COc1ccc(OC)c(Cn2cc3c(c2-c2ccccc2)CCc2cnoc2-3)c1` in the same way.
Output: N

Input: Consider next the molecule COc1ccc(/C(=N\NC(=S)NN)C(c2ccc(OC)cc2)C2C(=O)Oc3ccccc32)cc1 (stereo not given) in the same way.
Output: N

Input: Consider next the molecule `COc1cc(NCCCCCCCNC(C)C)c2nccc(C)c2c1` in the same way.
Output: N

Input: Consider next the molecule `CCNC(=O)c1noc(-c2cc(C(C)C)c(O)cc2O)c1-c1ccc(CN2CCOCC2)cc1` in the same way.
Output: Y

Input: Consider next the molecule `Cn1cc(C2=C(c3cn(C4CCN(Cc5ccccn5)CC4)c4ccccc34)C(=O)NC2=O)c2ccccc21` in the same way.
Output: N

Input: Consider next the molecule `Nc1ccc(/C=C/C(=O)NCc2cc3cc(-c4ccc(C(=O)N5CCC(F)(F)CC5)cc4)cc(-c4ccc(F)cc4)c3o2)cn1` in the same way.
Output: N

Input: Consider next the molecule `Cc1ccc(-c2nc3nc(-c4ccc(F)cc4)nc(N4CCCNCC4)c3o2)cc1` in the same way.
Output: N

Input: Consider next the molecule `O=C1CCCCN1CCCCC#Cc1cccc(C#Cc2cccnc2)c1` in the same way.
Output: N

Input: Consider next the molecule `O=c1c(F)cn(Cc2ccccc2CCl)c(=O)n1Cc1ccccc1CCl` in the same way.
Output: N

Input: Consider next the molecule `C(=N\Nc1nnn(Cc2ccccc2)n1)/c1ccccc1` in the same way.
Output: N

* * *

Test system: CAKI-1 renal
experiment_description: NCI tumour cell line growth inhibition, 48 h
I'd appreciate it if you could supply TGI values for the items below.

Input: What value of measured TGI is listed for C[C@H]1CCCC(O)C(O)[C@@H]2C[C@H](O[Si](C)(C)C(C)(C)C)C[C@H]2[C@H](O[Si](C)(C)C(C)(C)C)C(O)C(O)C(=O)O1 (stereo partly specified) ?
Output: 89.7 µM

Input: Consider next the molecule CC1(C)CC2C(=O)c3ccccc3NC2c2ccccc21 (stereo unspecified) in the same way.
Output: > 100 µM

Input: Consider next the molecule `COc1cc2c(cc1Cc1c(F)cccc1Cl)nc(-c1c(F)cccc1Cl)n2Cc1c(F)cccc1Cl` in the same way.
Output: 91.3 µM

Input: Consider next the molecule `COc1ccc(OC)c(Cn2cc3c(c2-c2ccccc2)CCc2cnoc2-3)c1` in the same way.
Output: > 100 µM

Input: Consider next the molecule `NC(=S)NN/C=C(\C=Nc1ccccc1)[N+](=O)[O-]` in the same way.
Output: > 100 µM

Input: Consider next the molecule C[C@H]1SC(c2ccc(Cl)cc2Cl)N(NC(=O)c2ccncc2)C1=O (stereo partly specified) in the same way.
Output: > 100 µM

Input: Consider next the molecule COc1ccc(N(C(=O)Nc2ccc(Cl)c(Cl)c2)C2c3cccn3C(=O)N2c2ccc(Cl)c(Cl)c2)cc1 (stereo unspecified) in the same way.
Output: > 100 µM

Input: Consider next the molecule `CN(C)c1ccc(-c2ccc(-c3ccc(C(=N)N)cc3)s2)cc1` in the same way.
Output: 3.77 µM

Input: Consider next the molecule `S=c1cc(-c2ccc3c(c2)OCO3)s[nH]1` in the same way.
Output: > 100 µM

Input: Consider next the molecule `O=c1oc2ccccc2[n+]([O-])c1-c1ccccc1` in the same way.
Output: > 100 µM

Input: Consider next the molecule `C#CCN(Cc1ccc2nc(OC)c(OC)nc2c1)c1cc(OC)c(OC)c(OC)c1` in the same way.
Output: > 82.8 µM
